Target: human PKR1 receptors (Homo sapiens (Human), UniProt Q8TCW9)
Sequence (Q8TCW9 whole entry): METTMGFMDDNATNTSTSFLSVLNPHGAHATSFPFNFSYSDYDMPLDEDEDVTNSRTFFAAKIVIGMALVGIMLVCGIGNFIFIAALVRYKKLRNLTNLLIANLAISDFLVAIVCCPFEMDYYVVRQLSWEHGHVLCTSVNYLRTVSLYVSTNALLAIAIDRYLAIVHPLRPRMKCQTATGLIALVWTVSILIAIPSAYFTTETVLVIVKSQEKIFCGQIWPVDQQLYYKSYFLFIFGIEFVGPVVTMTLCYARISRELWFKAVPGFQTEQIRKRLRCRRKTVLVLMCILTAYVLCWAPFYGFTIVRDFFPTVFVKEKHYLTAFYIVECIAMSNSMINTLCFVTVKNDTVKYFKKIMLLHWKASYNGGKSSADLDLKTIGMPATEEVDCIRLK
Test: PKR1 antagonist assay: block of PK1-mediated intracellular calcium release (FLIPR)
Conditions: RBL2H3 cells expressing human PKR1; 10 min preincubation; stimulation with PK1 at EC80; calcium fluorescence
pIC50: −log10 of the molar value.
propertyName: pIC50

molecule: Cc1nn(C)c(C)c1S(=O)(=O)N1CCC(N(C)c2ccc(Cl)cc2)CC1 [Example 53]
measuredValue: 6.05

Cited source: patent US9475795B2
